- experimental target: UniProtKB P11245
- Sequence (P11245 whole entry): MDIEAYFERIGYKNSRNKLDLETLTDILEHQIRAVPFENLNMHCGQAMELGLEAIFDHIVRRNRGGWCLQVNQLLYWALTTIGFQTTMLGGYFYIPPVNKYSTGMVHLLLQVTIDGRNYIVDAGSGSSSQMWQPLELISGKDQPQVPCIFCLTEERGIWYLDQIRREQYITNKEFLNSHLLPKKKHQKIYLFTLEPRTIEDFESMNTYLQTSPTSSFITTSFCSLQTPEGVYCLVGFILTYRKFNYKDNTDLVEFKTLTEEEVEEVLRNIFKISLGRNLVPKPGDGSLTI
- test method notes: in vitro
- condition notes: probe arylamine and AcCoA
property label: inhibition at 30 µM

O=Cc1cccc(C2=C(NC(=O)c3ccccc3)C(=O)c3ccccc3C2=O)c1 : > 50%

For the next question, use this molecule.
// fetch inhibition at 30 µM given entry `O=C(NC1=C(c2ccoc2)C(=O)c2ccccc2C1=O)c1ccccc1`
> 50%

* * *

- test method notes: physchem
- condition notes: buffered solution containing 5% DMSO
property label: pKa at 100 µM

Cc1cc(C)cc(NC2=C(NS(=O)(=O)C3CCCCC3)C(=O)c3ccccc3C2=O)c1 : 10.6

P = Cc1cc(C)cc(NC2=C(NS(=O)(=O)c3ccccc3)C(=O)c3cccc([N+](=O)[O-])c3C2=O)c1
Q = O=C1C(NS(=O)(=O)c2ccccc2)=C(c2ccoc2)C(=O)c2ccccc21
Which record shows the lower pKa at 100 µM: the first, P , or the second, Q ? Your answer should be the label of the entry you select.
Q

* * *

- test method notes: physchem
- condition notes: buffered solution containing 5% DMSO
property label: pKa at 100 µM

Nc1cccc2c1C(=O)C(NS(=O)(=O)c1ccccc1)=C(Nc1ccccc1)C2=O : 8.2
Cc1cc(C)cc(NC2=C(NS(=O)(=O)c3ccccc3)C(=O)c3c(cccc3[N+](=O)[O-])C2=O)c1 : 8.6
Cc1cc(C)cc(NC2=C(NS(=O)(=O)c3ccccc3C)C(=O)c3ccccc3C2=O)c1 : 9.3
Cc1cc(C)cc(NC2=C(NS(=O)(=O)c3ccccc3)C(=O)c3c(N)cccc3C2=O)c1 : 8.4
Cc1cc(C)cc(NC2=C(NS(C)(=O)=O)C(=O)c3ccccc3C2=O)c1 : 9.5
Cc1cc(C)cc(NC2=C(NS(=O)(=O)c3ccccc3)C(=O)c3ccccc3C2=O)c1 : 9.2
